biological target: complement protein C3 of cynomolgus monkey plasma (cynomolgus monkey); assay: cell-based or functional assay
reported_property: C3 destruction ED50 (mg/kg), in vivo, intravenous injection, cynomolgus monkey
Write the value in mg/kg as a bare number.

binder	unit_label	data_value
Q38H/I41A/D60bV/F60eR/Y60gW/D96I/F97Y/ins97aN/T98G/F99L/C122S/G151N/Q175L/Q192D (enzyme) VVGGTDADEGEWPWQVSLHALGHGHACGASLISPNWLVSAAHCYIDVRGRRWSDPTQWTAFLGLHDQSQRSAPGVQERRLKRIISHPFFNIYNGLDYDIALLELEKPAEYSSMVRPISLPDASHVFPAGKAIWVTGWGHTQYGGTNALILQKGEIRVINQTTCENLLPQLITPRMMCVGFLSGGVDSCDGDSGGPLSSVEADGRIFQAGVVSWGDGCAQRNKPGVYTRLPLFRDWIKENTGV	mg/kg	0.06

Note: attention shifts to another entry.
For reference, reported C3 destruction ED50 (mg/kg), in vivo, intravenous injection, cynomolgus monkey for Q38H/I41S/D60bT/F60eS/Y60gW/F97D/ins97aV/T98P/F99L/C122S/G151H/Q175L/Q192E (enzyme) VVGGTDADEGEWPWQVSLHALGHGHSCGASLISPNWLVSAAHCYIDTRGSRWSDPTQWTAFLGLHDQSQRSAPGVQERRLKRIISHPFFNDDVPLDYDIALLELEKPAEYSSMVRPISLPDASHVFPAGKAIWVTGWGHTQYGGTHALILQKGEIRVINQTTCENLLPQLITPRMMCVGFLSGGVDSCEGDSGGPLSSVEADGRIFQAGVVSWGDGCAQRNKPGVYTRLPLFRDWIKENTGV stands at 0.1

Reference source for all entries: patent US20240018502A1
